- Tested target: Sarcoplasmic/endoplasmic reticulum calcium ATPase 1 (Oryctolagus cuniculus, UniProt P04191)
- Sequence (P04191 whole entry): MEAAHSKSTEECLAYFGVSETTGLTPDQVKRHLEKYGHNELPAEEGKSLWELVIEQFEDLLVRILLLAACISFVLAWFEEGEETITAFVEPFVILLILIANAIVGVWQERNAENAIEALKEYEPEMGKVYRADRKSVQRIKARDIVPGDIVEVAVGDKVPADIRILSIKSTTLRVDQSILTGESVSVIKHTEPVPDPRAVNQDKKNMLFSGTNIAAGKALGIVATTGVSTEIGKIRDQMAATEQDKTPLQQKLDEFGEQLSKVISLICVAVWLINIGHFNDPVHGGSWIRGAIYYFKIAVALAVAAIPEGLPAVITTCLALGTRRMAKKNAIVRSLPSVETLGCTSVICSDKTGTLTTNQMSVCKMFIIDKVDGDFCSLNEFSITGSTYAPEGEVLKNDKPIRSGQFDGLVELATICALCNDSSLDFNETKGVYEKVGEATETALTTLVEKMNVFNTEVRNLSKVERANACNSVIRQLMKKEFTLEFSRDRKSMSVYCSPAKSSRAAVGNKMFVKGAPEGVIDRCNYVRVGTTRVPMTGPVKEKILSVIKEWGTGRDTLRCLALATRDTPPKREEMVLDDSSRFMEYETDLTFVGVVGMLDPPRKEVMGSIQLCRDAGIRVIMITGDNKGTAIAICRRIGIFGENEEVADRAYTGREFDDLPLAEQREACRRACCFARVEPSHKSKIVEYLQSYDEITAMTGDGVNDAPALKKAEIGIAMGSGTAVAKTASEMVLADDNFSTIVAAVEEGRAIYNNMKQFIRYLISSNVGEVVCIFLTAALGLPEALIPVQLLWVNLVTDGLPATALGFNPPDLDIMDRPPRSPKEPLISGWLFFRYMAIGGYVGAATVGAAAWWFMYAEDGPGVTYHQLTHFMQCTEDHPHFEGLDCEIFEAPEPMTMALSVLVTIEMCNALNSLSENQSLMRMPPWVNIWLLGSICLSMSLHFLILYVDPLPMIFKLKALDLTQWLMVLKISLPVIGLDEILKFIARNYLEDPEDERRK
- Protocol summary: Inhibition of SERCA1 in NewZealand rabbit skeletal muscle SR vesicles using ATP as substrate incubated for 2 mins followed by Ca2+ addition by NADH coupled enzyme assay
- Condition context: read-out: IC50
In this section, each of the molecules is paired with its reported pIC50.
Kindly note that pIC50 refers to -log10 of the concentration in mol/L and answer with the value alone.

Answered examples (4):
>  <Molecule>
CC1=C[C@@H]2c3c(O)cc(-c4cc5ccc(O)cc5o4)cc3O[C@@]3(c4ccc(O)cc4O)Oc4cc(O)ccc4[C@@H](C1)[C@H]23

>  <Quantitative result>
4.72

$$$$
>  <Molecule>
COc1cc(O)c([C@@H]2CC(=O)c3c(O)cc(O)cc3O2)cc1C/C=C(\C)CCC=C(C)C

>  <Quantitative result>
4.45

$$$$
>  <Molecule>
CC(C)=CCC/C(C)=C/Cc1cc([C@@H]2CC(=O)c3c(O)cc(O)cc3O2)c(O)cc1O

>  <Quantitative result>
4.53

$$$$
>  <Molecule>
Cc1cc2c3c(c1)-c1c(O)cc(-c4cc5ccc(O)cc5o4)cc1O[C@@]3(c1ccc(O)cc1O)Oc1cc(O)ccc1-2

>  <Quantitative result>
4.61

$$$$

Attention now turns to another entry.
Just so you know, measured pIC50 for CC(C)=CCc1c(-c2ccc(O)cc2O)oc2c3c(cc(O)c2c1=O)OC(C)(C)C=C3 [MORUSIN] came out at 4.36
